Target: 5-hydroxytryptamine receptor 5A (Homo sapiens)
Sequence (P47898 whole entry): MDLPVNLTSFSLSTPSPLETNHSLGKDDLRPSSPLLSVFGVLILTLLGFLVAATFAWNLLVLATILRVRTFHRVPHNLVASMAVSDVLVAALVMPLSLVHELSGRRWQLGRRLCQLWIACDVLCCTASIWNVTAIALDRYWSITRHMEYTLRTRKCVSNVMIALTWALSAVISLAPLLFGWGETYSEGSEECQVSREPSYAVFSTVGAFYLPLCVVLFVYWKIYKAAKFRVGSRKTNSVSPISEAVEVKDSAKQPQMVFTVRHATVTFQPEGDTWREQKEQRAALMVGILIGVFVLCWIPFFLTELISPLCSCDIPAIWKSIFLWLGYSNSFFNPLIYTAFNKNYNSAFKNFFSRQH
Assay: Displacement of [3H]-5-CT from human 5-HT5A receptor at 1 uM incubated for 2 hr by radioligand binding assay
pKi: −log10 of the molar value.
Parameter: pKi. Scope: all listed entries.
recorded_metric: pKi

[[record]]
test_smiles = "O=S1(=O)CCC[C@@H](CNCc2cccc3cccnc23)C1"
quantitative_readout = 6.15

[[record]]
test_smiles = "CN(C)S(=O)(=O)CCNCc1ccc(Cl)c2cccnc12"
quantitative_readout = 6.68

[[record]]
test_smiles = "Clc1ccc(CNCCc2cccnc2)c2ncccc12"
quantitative_readout = 5.62

[[record]]
test_smiles = "O=S1(=O)CC[C@@H](CNCc2cccc3cccnc23)C1"
quantitative_readout = 6.24

